- METHOD NOTES: Pharmacokinetic study in male SD rats
- Assay type: in vivo
- TEST CONTEXT: rat, plasma, IV 5 mg/kg, read-out: Vz

CPD SMILES: CCCC[C@](C)(CNC(C)=O)Nc1nc(N)nc2cc(C(=O)N(C)C)cnc12
Vd [L/kg]: 5.59

====

Reported CC50 at 24 h by item:
- METHOD NOTES: Cell activity detection (Celltiter-Glo) in human PBMC
- Format: cell-based
- TEST CONTEXT: 24 hours, Celltiter-Glo, read-out: CC50
OBSERVED PROPERTY: CC50 at 24 h

COMPOUND: CCCC[C@](C)(CNC(C)=O)Nc1nc(N)nc2cc(NC3CC3)cnc12 [Compound B]
MEASURED VALUE: 28.9 µM

COMPOUND: CCCC[C@](C)(CNC(C)=O)Nc1nc(N)nc2cc(C(=O)N(C)C)cnc12 [Compound A]
MEASURED VALUE: > 33 µM

COMPOUND: CCOCc1nc2c(N)nc3ccccc3c2n1CC(C)(C)O [Compound R848, reference compound]
MEASURED VALUE: > 71 µM

====

Kp at 4 h values for the molecules below.
- METHOD NOTES: Liver-blood ratio study in male SD rats
- Assay type: in vivo
- TEST CONTEXT: rat, liver / plasma, single oral administration, time point 4 h

MOLECULE: CCCC[C@](C)(CNC(C)=O)Nc1nc(N)nc2cc(CC)cnc12 [Compound X, reference compound]
Kp at 4 h: 23.6
//
MOLECULE: CCCC[C@](C)(CNC(C)=O)Nc1nc(N)nc2cc(C(=O)N(C)C)cnc12
Kp at 4 h: 34.4

====

- MEASURED ON: human TLR7 (Homo sapiens, UniProt Q9NYK1)
- Sequence (Q9NYK1 27-1049): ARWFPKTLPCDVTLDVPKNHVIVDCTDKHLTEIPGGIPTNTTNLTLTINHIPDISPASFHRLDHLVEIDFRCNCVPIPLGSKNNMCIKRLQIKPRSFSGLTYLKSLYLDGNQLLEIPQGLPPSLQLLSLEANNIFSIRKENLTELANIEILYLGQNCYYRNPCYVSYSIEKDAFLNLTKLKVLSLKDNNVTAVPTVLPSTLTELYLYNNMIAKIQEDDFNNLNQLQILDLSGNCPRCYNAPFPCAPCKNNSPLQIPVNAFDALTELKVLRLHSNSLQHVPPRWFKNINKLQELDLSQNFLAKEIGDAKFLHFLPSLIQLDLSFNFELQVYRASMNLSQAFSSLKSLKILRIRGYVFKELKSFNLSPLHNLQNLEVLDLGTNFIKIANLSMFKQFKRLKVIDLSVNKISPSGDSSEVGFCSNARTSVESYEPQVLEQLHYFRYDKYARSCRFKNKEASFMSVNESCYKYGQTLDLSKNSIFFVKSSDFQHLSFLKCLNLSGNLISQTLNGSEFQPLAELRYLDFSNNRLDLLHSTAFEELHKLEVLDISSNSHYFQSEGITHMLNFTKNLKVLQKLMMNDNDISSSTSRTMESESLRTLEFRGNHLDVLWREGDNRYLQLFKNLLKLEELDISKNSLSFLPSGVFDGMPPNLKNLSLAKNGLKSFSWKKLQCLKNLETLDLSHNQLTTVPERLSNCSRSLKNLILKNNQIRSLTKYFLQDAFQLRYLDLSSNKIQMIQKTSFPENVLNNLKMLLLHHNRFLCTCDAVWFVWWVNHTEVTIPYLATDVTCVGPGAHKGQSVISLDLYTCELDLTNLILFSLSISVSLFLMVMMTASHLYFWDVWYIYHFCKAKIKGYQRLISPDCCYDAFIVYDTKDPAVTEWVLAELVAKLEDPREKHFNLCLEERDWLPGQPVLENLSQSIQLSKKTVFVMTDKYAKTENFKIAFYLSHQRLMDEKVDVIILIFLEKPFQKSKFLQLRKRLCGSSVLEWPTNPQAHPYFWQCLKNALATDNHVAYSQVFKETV
- METHOD NOTES: hTLR7 receptor binding activity in vitro (HEK-Blue hTLR7 SEAP reporter)
- TEST CONTEXT: HEK-Blue hTLR7 cells, 24 hours, SEAP OD650
pEC50: −log10 of the molar value.

MOLECULE: CCCC[C@](C)(CNC(C)=O)Nc1nc(N)nc2cc(C(C)=O)cnc12
VALUE RELATION SIGN: <
pEC50: 4.48
//
MOLECULE: CCCC[C@](C)(CNC(C)=O)Nc1nc(N)nc2cc(C(=O)N(C)C)cnc12
VALUE RELATION SIGN: <
pEC50: 4.48
//
MOLECULE: CCCC[C@](C)(CNC(C)=O)Nc1nc(N)nc2cc(C(=O)N3CC4(CCN(c5ccccc5)CC4)C3)cnc12
VALUE RELATION SIGN: <
pEC50: 4.48
//
MOLECULE: CCCC[C@](C)(CNC(C)=O)Nc1nc(N)nc2cc(CC)cnc12 [Compound X, reference compound]
VALUE RELATION SIGN: =
pEC50: 4.92
//
MOLECULE: CCCC[C@](C)(CNC(C)=O)Nc1nc(N)nc2cc(NC3CC3)cnc12
VALUE RELATION SIGN: =
pEC50: 4.55
